Target: Nuclear receptor ROR-gamma (Homo sapiens)
Sequence (P51449 whole entry): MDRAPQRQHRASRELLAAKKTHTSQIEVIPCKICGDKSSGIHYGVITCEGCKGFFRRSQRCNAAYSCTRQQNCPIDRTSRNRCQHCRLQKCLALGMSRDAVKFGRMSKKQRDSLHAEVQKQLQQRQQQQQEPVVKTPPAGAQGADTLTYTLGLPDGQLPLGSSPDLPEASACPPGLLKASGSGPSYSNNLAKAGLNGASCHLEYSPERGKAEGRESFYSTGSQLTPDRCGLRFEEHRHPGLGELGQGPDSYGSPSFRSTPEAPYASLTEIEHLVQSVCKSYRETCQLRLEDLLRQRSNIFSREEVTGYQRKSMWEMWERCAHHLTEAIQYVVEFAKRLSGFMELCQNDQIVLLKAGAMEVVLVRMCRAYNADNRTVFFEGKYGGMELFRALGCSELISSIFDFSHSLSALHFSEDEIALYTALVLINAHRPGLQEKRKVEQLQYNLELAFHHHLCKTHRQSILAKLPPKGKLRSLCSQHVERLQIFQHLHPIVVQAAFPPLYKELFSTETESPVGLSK
Experiment: Inverse agonist activity at human ROR-gamma1 expressed in HEK293 cells after 16 hrs by luciferase reporter gene assay
Assay type: cell-based
Details: read-out: IC50
For each entry below, report its pIC50 value.
One number for each entry, as −log10 of the molar value.

// below: answered molecules
{"COMPOUND STRUCTURE": "CCCCn1c(=O)c2ccccc2c2cc(C(O)(C(F)(F)F)C(F)(F)F)c(OC)cc21", "pIC50": 5.04}
{"COMPOUND STRUCTURE": "CCCCn1c(=O)c2ccccc2c2cc(C(C)(C)C)ccc21", "pIC50": 4.98}
{"COMPOUND STRUCTURE": "CCCCCCn1c(=O)c2ccccc2c2cc(C(O)(C(F)(F)F)C(F)(F)F)ccc21", "pIC50": 5.33}

Could you tell me pIC50 for each of these molecules? They are listed below.
1. CCCCn1c(=O)c2ccccc2c2cc(C(O)(C(F)(F)F)C(F)(F)F)ccc21
2. CCCCn1c(=O)c2ccccc2c2cc(CC)ccc21

[5.41, 5.04]
